tested on: NCI/ADR-RES ovarian; experiment: NCI-60 one-dose screen, 48 h (100 = growth as untreated, 0 = no growth, -100 = all killed); conditions: 10 µM
Compounds without any hit were thinned out: in the full panel of roughly 83,000, 20% have a hit.
Observable: growth (%)
Give just the number in %; leave the unit off.

// returns reported growth for input O=[N+]([O-])c1ccc(NCSc2ccc(Cl)cc2)cc1
102

Lookup Nc1cc(-c2ccncc2)c[nH]c1=O
104

Lookup CC(=O)Nc1ccc(S(=O)(=O)c2ccnc3cc(Cl)ccc23)cc1
77.3

Lookup CCCCCC(=O)O[C@]1(C(C)=O)CCC2C3CCC4=CC(=O)CC[C@]4(C)C3CC[C@@]21C (stereo partly specified)
12.9

Lookup COC(=O)c1c[nH]c2cc(OC(C)C)c(OC(C)C)cc2c1=O
101

Lookup Nc1ccc(-c2cccs2)cc1NC(=O)c1ccc(CCCC(=O)Nc2ccc(C3CC3N)cc2)cc1 (stereo unspecified)
87.5

Lookup O=C(O)c1ccc(-n2cc(CNc3ccc(Cl)cc3)c(-c3ccccc3)n2)cc1
91.6

Lookup CC1=NN(C(=O)c2nn(-c3ccc(Cl)cc3)cc2O)C(=O)C1
31.6

Lookup COc1ccc(Nc2cnc3cc(NS(=O)(=O)c4ccc(C)cc4)ccc3n2)cc1
73.1

Lookup COc1ccc(-c2nn(-c3cccc(Cl)c3)cc2-c2c(C#N)c(N)n(N)c(=O)c2C#N)cc1
90.4

Lookup Cc1cc(Cl)ccc1Nc1nc(C(F)(F)F)ccc1C(=O)N/N=C/c1cccc(O)c1
26.6

Lookup O=C(CCNC(=O)c1nc(-c2ccccc2)n(-c2ccc(Cl)cc2)n1)NO
109

Lookup Clc1nc2ccccc2cc1Cn1nnc(Cc2ccccc2)n1
52.1

Lookup COc1ccc(-c2nn(-c3cccc(Cl)c3)cc2C=C(C#N)C#N)cc1
2.52

Lookup Oc1ccc(/C=N/N=C2c3ccccc3-c3ccccc32)c(O)c1
72.9

Lookup c1ccc(CSc2ncccc2-c2nnc(SCCN3CCOCC3)o2)cc1
107

Lookup CC(C)c1ccc(C(C)C(=O)N(CC2=C(C(C)c3ccccn3)c3ccccc3C2)C(C)C)cc1 (stereo unspecified)
24.2

Lookup O=c1c(Br)ccc(Br)cc1Br
-15.3

Lookup Cc1cc(Cl)ccc1Nc1nc(C(F)(F)F)ccc1C(=O)N/N=C/c1c(Cl)cccc1Cl
11.9

Lookup CCOC(=O)c1sc2ncnc(Nc3ccc4c(cnn4C(=O)Nc4ccc(C)c(Cl)c4)c3)c2c1C
105

Lookup IC(I)I
105

---

tested on: T-47D breast; test: NCI-60 one-dose screen, 48 h; details: 10 µM
The panel holds about 83,000 compounds, 20% with a hit somewhere; the sample as a whole holds those more often. Active and inactive are the calls of the source. How the source made its calls: active means growth percent below 10; inactive means the rest.
Outcome (select one): 1 for active, -1 for inactive

Any idea what this test logged for C/C(=C/CCC(C)[C@@H]1CC[C@]2(C)C3=C(CC[C@@]12C)[C@@]1(C)CCC(=O)C(C)(C)[C@@H]1CC3)C(=O)O (stereo partly drawn) ?
1

Lookup CCN1C(=O)CC(SC2CC(=O)N(CC)C2=O)C1=O (stereo not drawn)
-1

Lookup COc1ccc(-c2cc(-c3ccc(OC)c(OC)c3)nc(SCCCC(=O)NO)n2)cc1
1

Lookup N#Cc1c(-c2ccc(Cl)cc2)cc(-c2cc(O)ccc2O)nc1N
1

Lookup CC(=O)O[C@@]12CO[C@@H]1C[C@H](O)[C@@]1(C)C(=O)[C@H](O)C3=C(C)[C@@H](OC(=O)[C@H](O)[C@@H](NC(=O)OC(C)(C)C)c4ccccc4)C[C@@](O)([C@@H](OC(=O)c4ccccc4)C12)C3(C)C (stereo partly drawn)
-1

Lookup Cc1c2cnccc2c(C)c2c1oc1ccccc12
-1

Lookup CCOC(=O)c1sc2ncnc(Nc3ccc(NC(=O)Nc4ccc(Cl)cc4)cc3)c2c1C
-1

Lookup COc1ccc(-c2cc(-c3ccc(Cl)cc3)nc(SCCCC(=O)NO)n2)cc1OC
-1

Lookup COc1ccc(C(=O)N/N=C/c2cc(C(F)(F)F)ccc2Cl)cc1
-1

Lookup Cc1cc(Br)nnc1Br
-1

Lookup NS(=O)(=O)Oc1ccc(NC(=O)C2CCCCCC2)cc1
-1

Lookup Cc1ccc(C2=NN(c3ccc(S(C)(=O)=O)cc3)C(=O)CC2)cc1
-1

Lookup CC(C)N(CCOc1cccc(-c2nc3sccn3c2-c2ccnc(S(C)(=O)=O)n2)c1)C(C)C
-1
